- assay target: Polyunsaturated fatty acid 5-lipoxygenase (Homo sapiens)
- Sequence (P09917 whole entry): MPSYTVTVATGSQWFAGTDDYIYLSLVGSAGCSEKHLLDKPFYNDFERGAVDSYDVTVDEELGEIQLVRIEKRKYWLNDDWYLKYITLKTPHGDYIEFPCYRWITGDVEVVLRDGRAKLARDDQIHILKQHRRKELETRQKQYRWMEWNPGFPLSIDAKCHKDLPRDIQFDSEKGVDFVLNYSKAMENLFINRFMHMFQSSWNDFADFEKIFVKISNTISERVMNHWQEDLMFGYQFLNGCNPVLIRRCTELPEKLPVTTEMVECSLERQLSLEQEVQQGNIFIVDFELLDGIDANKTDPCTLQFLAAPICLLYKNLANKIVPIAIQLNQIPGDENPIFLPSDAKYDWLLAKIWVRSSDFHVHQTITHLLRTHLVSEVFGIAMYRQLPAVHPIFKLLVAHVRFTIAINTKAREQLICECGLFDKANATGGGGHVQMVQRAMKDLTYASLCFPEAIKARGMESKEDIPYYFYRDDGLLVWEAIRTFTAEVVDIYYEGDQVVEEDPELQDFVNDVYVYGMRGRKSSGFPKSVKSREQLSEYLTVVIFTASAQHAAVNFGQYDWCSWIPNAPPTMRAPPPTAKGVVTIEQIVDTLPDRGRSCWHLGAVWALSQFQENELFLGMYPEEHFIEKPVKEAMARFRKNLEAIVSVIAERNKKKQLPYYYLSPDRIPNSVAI
- procedure summary: Inhibition of human recombinant 5-LOX expressed in Escherichia coli BL21 incubated for 10 mins in presence of arachidonic acid by RP-HPLC based cell-free assay
Recorded measurements of IC50, one per entry
Express the result in nM but write the number alone.

Please review the entries below; each comes with its answer.
compound string	assay target	unit text	IC50
CCCCCCCCCCCC1=C(OC)C(OC)=CC(=O)C1=O	Polyunsaturated fatty acid 5-lipoxygenase (Homo sapiens)	nM	90
CCCCCCCCCCCCCC1=C(OC)C(OC)=CC(=O)C1=O	Polyunsaturated fatty acid 5-lipoxygenase (Homo sapiens)	nM	80
CCCCCCCCCCCCC1=C(O)C(=O)C=C(O)C1=O	Polyunsaturated fatty acid 5-lipoxygenase (Homo sapiens)	nM	170

IC50 for COC1=CC(=O)C(OC)=C(C/C=C(\C)CC/C=C(\C)CCC=C(C)C)C1=O is 1700

IC50 for CCCCCCCCCCCC1=C(OC)C(=O)C=C(OC)C1=O is 930

IC50 for CCCCCCCCCCCCCCCCC1=C(OC)C(=O)C=C(OC)C1=O is 1600

IC50 for CCCCCCCCCCC1=C(OC)C(OC)=CC(=O)C1=O is 130

IC50 for CCCCCCCCC1=C(OC)C(OC)=CC(=O)C1=O is 330

IC50 for CCCCCCCCCCCCCCCCC1=C(O)C(=O)C=C(O)C1=O is 190

IC50 for CCCCCCC1=C(OC)C(OC)=CC(=O)C1=O is 2600

IC50 for CCCCCCCCCCCCCC1=C(OC)C(=O)C=C(OC)C1=O is 260

IC50 for CCCCCCC1=C(O)C(=O)C=C(O)C1=O is 4000

IC50 for CC(C)=CCC/C(C)=C/CC/C(C)=C/CC1=C(O)C(=O)C=C(O)C1=O is 2500

IC50 for CCCCCCCCCCC1=C(O)C(=O)C=C(OC)C1=O is 4300

IC50 for COC1=CC(=O)C(=O)C(C/C=C(\C)CC/C=C(\C)CCC=C(C)C)=C1OC is 300
